Each record here notes measured GI50.
# Tested on: NUGC-3 (stomach)
# procedure_summary: SRB cytotoxicity assay, NUGC-3
# Format: cell-based, human
# details: Homo sapiens, NUGC-3; SRB assay, 48 hours; read-out: GI50, NUGC-3

Some solved cases for reference:
C[C@@H](c1cc(C(=O)O)c2nc3cccc([C@@H](C)O)c3nc2c1)c1cccc2nc3c(C(=O)O)cccc3nc12 ... > 10000 nM
C[C@H](c1cc([C@@H](C)O)c2nc3cccc(C(=O)O)c3nc2c1)c1cccc2nc3c(C(=O)O)cccc3nc12 ... > 10000 nM
C[C@@H](O)c1cccc2nc3c(C(=O)O[C@H](C)c4cccc5nc6c(C(=O)O)cccc6nc45)cccc3nc12 ... 7.7 nM
CC(=O)c1cccc2nc3c(C(=O)O[C@H](C)c4cccc5nc6c(C(=O)O)cccc6nc45)cccc3nc12 ... 34.9 nM
C[C@@H](c1cccc2nc3c(C(=O)O)cccc3nc12)c1ccc(C(=O)O)c2nc3cccc([C@@H](C)O)c3nc12 ... > 10000 nM

Problem: Look up and state reported GI50 for CC(=O)c1cccc2nc3c(C(=O)O)ccc([C@H](C)c4cccc5nc6c(C(=O)O)cccc6nc45)c3nc12
Solution: > 10000 nM

Problem: Look up and state reported GI50 for COc1cccc2c1C(=O)c1c(O)c3c(c(O)c1C2=O)C[C@@](O)(C(=O)CO)C[C@@H]3O[C@H]1C[C@H](N)[C@H](O)[C@H](C)O1 [ADR, Adriamycin, reference compound]
Solution: 150 nM

Problem: Look up and state reported GI50 for C[C@H](c1cccc2nc3c(C(=O)O)cccc3nc12)c1ccc(C(=O)O)c2nc3cccc([C@@H](C)O)c3nc12
Solution: > 10000 nM
